biological target: recombinant human Mcl-1 (residues 171-327) / Bim interaction (Homo sapiens (Human), UniProt Q07820); experiment: biochemical; type: binding; settings: TR-FRET, Mcl-1(171-327) / biotin-Bim (51-76); read-out: Mcl-1 HTRF IC50
Sequence (Q07820 171-327): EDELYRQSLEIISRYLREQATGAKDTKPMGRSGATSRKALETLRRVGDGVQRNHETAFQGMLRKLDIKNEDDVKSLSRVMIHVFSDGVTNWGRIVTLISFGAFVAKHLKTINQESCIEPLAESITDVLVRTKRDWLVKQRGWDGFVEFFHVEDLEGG
QUANTITY: IC50 (nM)
Only the number, expressed in nM, is required.

Ask: Please give the measured IC50 for this compound: `CC[C@@]1(O)/C=C/C[C@H](C)[C@@H](C)S(=O)(=O)NC(=O)c2ccc3c(c2)N(C[C@@H]2CC[C@H]21)C[C@@]1(CCCc2cc(Cl)ccc21)CO3`
Reply: 1.26

Ask: Please give the measured IC50 for this compound: C[C@@H]1[C@@H](C)C/C=C/[C@@](O)(C#CCN2CCS(=O)(=O)CC2)[C@@H]2CC[C@H]2CN2C[C@@]3(CCCc4cc(Cl)ccc43)COc3ccc(cc32)C(=O)NS1(=O)=O [Example 100388]
Reply: 1.17

Ask: Please give the measured IC50 for this compound: C[C@@H]1[C@@H](C)C/C=C/[C@](O)(C(C)(C)C#N)[C@@H]2CC[C@H]2CN2C[C@@]3(CCCc4cc(Cl)ccc43)COc3ccc(cc32)C(=O)NS1(=O)=O [Example 100059]
Reply: 11.9

Ask: Please give the measured IC50 for this compound: `C[C@@H]1[C@@H](C)C/C=C/[C@@](O)(CC(=O)OCC2(C)COC2)[C@@H]2CC[C@H]2CN2C[C@@]3(CCCc4cc(Cl)ccc43)COc3ccc(cc32)C(=O)NS1(=O)=O`
Reply: 0.35

Ask: Please give the measured IC50 for this compound: `O=C1NS(=O)(=O)CCCCC[C@](O)(CO)[C@@H]2CC[C@H]2CN2C[C@@]3(CCCc4cc(Cl)ccc43)COc3ccc1cc32`
Reply: 1.05

Ask: Please give the measured IC50 for this compound: COc1ncccc1[C@@]1(O)/C=C/C[C@H](C)[C@@H](C)S(=O)(=O)NC(=O)c2ccc3c(c2)N(C[C@@H]2CC[C@H]21)C[C@@]1(CCCc2cc(Cl)ccc21)CO3 (single isomer, unassigned) [Example 100333]
Reply: 2.1

Ask: Please give the measured IC50 for this compound: `C[C@@H]1[C@@H](C)C/C=C/[C@@](O)(CC(=O)N2CC(F)(F)C2)[C@@H]2CC[C@H]2CN2C[C@@]3(CCCc4cc(Cl)ccc43)COc3ccc(cc32)C(=O)NS1(=O)=O`
Reply: 0.115

Ask: Please give the measured IC50 for this compound: `CO[C@@]1(c2cncc(CN(C)C)c2)/C=C/C[C@H](C)[C@@H](C)S(=O)(=O)NC(=O)c2ccc3c(c2)N(C[C@@H]2CC[C@H]21)C[C@@]1(CCCc2cc(Cl)ccc21)CO3`
Reply: 0.231

Ask: Please give the measured IC50 for this compound: COC[C@]1(O)CCC[C@H](C)[C@@H](C)S(=O)(=O)NC(=O)c2ccc3c(c2)N(C[C@@H]2CC[C@H]21)C[C@@]1(CCCc2cc(Cl)ccc21)CO3 (stereo in doubt)
Reply: 0.214

Ask: Please give the measured IC50 for this compound: `CO[C@@]1(CC2=NC(C)(C)C(=O)O2)/C=C/C[C@H](C)[C@@H](C)S(=O)(=O)NC(=O)c2ccc3c(c2)N(C[C@@H]2CC[C@H]21)C[C@@]1(CCCc2cc(Cl)ccc21)CO3`
Reply: 0.031
